Below, each entry is listed alongside its reported pIC50.
target: Serine-protein kinase ATM (Homo sapiens, UniProt Q13315); test: Inhibition of full length recombinant ATM after 24 hrs by radiometric phosphate incorporation assay
Sequence (Q13315 whole entry): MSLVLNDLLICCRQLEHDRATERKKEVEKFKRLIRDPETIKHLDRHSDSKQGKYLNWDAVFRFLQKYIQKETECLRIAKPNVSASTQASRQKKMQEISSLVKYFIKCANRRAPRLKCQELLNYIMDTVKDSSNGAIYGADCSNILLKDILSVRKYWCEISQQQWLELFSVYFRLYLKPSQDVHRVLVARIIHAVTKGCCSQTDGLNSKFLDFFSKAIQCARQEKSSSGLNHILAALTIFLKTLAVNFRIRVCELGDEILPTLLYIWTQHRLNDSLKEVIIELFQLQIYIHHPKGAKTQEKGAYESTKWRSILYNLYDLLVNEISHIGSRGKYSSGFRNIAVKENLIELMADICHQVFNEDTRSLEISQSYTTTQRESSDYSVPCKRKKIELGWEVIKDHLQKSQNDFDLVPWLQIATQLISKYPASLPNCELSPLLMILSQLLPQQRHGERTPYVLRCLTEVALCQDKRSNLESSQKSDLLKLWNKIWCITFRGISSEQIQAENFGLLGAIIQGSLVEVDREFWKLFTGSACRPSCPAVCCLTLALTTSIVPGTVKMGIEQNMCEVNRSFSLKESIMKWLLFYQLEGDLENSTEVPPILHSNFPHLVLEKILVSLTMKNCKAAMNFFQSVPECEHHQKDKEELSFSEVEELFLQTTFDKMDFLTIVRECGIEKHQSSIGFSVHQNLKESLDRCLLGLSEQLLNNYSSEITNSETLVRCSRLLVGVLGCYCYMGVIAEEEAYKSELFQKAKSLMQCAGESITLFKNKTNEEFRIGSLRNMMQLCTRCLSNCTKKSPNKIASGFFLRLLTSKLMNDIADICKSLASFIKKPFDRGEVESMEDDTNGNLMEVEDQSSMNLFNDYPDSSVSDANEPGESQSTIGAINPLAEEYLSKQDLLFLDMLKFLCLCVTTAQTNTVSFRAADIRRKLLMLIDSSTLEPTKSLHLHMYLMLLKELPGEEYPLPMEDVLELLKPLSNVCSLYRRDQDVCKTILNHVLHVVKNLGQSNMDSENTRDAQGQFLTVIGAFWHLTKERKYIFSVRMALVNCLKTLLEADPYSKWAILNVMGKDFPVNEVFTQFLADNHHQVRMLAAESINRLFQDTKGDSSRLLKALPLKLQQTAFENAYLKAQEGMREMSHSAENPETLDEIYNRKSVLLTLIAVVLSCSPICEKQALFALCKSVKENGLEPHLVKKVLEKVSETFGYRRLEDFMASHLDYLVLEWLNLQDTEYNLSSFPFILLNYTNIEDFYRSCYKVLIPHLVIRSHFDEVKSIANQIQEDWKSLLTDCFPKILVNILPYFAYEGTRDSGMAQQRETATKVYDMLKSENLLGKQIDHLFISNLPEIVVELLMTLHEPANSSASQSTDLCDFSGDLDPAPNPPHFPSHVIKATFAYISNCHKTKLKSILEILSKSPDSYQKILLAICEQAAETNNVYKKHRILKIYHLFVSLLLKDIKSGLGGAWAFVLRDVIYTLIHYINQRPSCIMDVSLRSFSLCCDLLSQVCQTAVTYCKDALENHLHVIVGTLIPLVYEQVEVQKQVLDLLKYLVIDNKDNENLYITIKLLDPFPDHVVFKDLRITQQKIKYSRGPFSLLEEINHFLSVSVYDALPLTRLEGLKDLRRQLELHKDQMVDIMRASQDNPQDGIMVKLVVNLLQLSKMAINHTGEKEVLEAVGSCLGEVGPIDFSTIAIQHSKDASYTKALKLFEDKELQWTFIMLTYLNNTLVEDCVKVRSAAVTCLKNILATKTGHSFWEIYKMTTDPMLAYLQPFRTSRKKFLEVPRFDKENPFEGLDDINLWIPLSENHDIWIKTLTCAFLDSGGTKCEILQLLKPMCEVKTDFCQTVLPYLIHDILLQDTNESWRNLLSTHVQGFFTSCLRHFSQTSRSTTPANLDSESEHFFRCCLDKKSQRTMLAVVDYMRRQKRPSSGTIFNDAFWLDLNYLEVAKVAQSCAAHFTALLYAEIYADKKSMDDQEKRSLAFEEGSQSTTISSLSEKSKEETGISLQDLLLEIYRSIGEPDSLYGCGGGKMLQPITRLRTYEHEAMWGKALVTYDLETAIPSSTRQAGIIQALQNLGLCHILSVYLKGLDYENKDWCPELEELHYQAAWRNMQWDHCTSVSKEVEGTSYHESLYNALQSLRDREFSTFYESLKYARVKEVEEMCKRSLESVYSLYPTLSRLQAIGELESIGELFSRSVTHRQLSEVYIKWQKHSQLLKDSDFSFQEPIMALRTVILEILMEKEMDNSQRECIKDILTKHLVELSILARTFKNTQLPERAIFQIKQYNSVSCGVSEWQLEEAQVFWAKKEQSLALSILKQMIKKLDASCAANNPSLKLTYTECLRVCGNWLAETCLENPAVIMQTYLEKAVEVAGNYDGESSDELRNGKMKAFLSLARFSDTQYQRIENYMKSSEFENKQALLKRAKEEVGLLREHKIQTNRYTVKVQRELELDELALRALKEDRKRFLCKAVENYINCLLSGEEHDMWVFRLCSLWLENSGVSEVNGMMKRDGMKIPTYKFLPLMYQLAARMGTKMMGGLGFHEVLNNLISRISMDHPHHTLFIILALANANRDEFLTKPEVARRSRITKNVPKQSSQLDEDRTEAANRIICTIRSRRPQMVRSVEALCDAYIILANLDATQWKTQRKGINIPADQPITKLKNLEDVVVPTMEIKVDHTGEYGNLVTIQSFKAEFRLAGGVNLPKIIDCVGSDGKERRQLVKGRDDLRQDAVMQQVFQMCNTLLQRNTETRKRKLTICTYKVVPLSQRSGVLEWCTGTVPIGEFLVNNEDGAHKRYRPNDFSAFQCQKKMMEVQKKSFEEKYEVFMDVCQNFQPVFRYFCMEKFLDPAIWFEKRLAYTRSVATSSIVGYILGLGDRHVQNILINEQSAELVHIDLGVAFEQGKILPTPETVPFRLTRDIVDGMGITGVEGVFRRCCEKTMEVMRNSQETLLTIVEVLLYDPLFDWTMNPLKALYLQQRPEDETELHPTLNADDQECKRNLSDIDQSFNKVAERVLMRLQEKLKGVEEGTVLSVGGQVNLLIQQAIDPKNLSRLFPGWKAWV
pIC50: −log10 of the molar value.

A selection of reference data follows.
{"compound": "Nc1ncc(Br)nc1C(=O)Nc1ccccc1", "pIC50": "< 5.10"}
{"compound": "COc1cccc(-c2cnc(N)c(C(=O)Nc3ccccc3)n2)c1", "pIC50": "< 5.10"}
{"compound": "Cc1cccc(-c2cnc(N)c(C(=O)Nc3ccccc3)n2)c1", "pIC50": "< 5.10"}

Turning now to a further record.
Item under review: CC(C)S(=O)(=O)c1ccc(-c2cnc(N)c(C(=O)Nc3ccccc3)n2)cc1 . Reported pIC50?
< 5.10
